Test system: 945468-187-T-J2-PDC spheroids viability;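 further: spheroids exposed to compounds for seven days before reading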
Assay: Anticancer human tumor 945468-187-T-J2-PDC patient-derived rectal carcinoma cell line growth inhibition [PI3K]
Conditions: second compound 0.1 µM; first compound 1 µM; hits give low values; spheroids with HUVEC and MSC

molecule	viability, T/C / %
Cn1ncc(Cl)c1-c1cc(C(=O)NC(CN)Cc2cccc(F)c2)sc1Cl (stereo not drawn) + COc1c(OCCCN2CCOCC2)ccc2c3n(c(=NC(=O)c4cnc(N)nc4)nc12)CCN3	73
CNC(=O)c1ccc(N2C(=S)N(c3ccc(C#N)c(C(F)(F)F)c3)C(=O)C2(C)C)cc1F + CC(Nc1ccc2c(c1)OCCn1cc(N3C(=O)OCC3C(F)F)nc1-2)C(N)=O	92.5
CC1(C)CCC(CN2CCN(c3ccc(C(=O)NS(=O)(=O)c4ccc(NCC5CCOCC5)c([N+](=O)[O-])c4)c(Oc4cnc5[nH]ccc5c4)c3)CC2)=C(c2ccc(Cl)cc2)C1 + COc1c(OCCCN2CCOCC2)ccc2c3n(c(=NC(=O)c4cnc(N)nc4)nc12)CCN3	90.5
